# tested.target: Renin (Homo sapiens)
# Sequence (P00797 whole entry): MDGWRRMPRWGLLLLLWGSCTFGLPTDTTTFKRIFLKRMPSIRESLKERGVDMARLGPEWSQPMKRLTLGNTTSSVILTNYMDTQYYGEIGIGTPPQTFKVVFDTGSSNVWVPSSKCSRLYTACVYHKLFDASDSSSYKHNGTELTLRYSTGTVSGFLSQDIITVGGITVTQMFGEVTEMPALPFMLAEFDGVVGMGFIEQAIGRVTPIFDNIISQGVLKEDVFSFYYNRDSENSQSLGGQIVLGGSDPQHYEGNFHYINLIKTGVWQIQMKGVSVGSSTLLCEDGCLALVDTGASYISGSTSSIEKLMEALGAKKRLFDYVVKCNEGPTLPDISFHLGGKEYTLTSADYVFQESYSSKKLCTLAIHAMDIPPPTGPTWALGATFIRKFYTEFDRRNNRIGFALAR
# assay: Inhibitory activity against human plasma renin
pIC50: −log10 of the molar value.
property.measured: pIC50

Known results for compounds:
CCCC[C@H](NC(=O)CCc1ccccc1)C(=O)N[C@@H](CC(C)C)[C@@H](O)CC(=O)N[C@H](C(=O)NCc1ccccn1)[C@H](C)CC    6.46
CCCC[C@@H](C(=O)N[C@@H](CC(C)C)[C@@H](O)C[C@H](C(=O)N[C@H](C(=O)NCc1ccccn1)[C@H](C)CC)C(C)C)N1CCC(Cc2ccccc2)(NC(=O)OCc2ccccc2)C1=O (stereo in doubt; form 2)    8.19

A. CCCC[C@H](NC(=O)CCc1ccccc1)C(=O)N[C@@H](CC(C)C)[C@@H](O)C[C@H](C(=O)N[C@H](C(=O)NCc1ccccn1)[C@H](C)CC)C(C)C
B. CCCC[C@@H](C(=O)N[C@@H](CC(C)C)[C@@H](O)C[C@H](C(=O)N[C@H](C(=O)NCc1ccccn1)[C@H](C)CC)C(C)C)N1CCC(Cc2ccccc2)(NC(=O)OCc2ccccc2)C1=O (stereo in doubt; form 1)
C. CCCC[C@H](NC(=O)[C@H](Cc1ccccc1)NC(=O)OCc1ccccc1)C(=O)N[C@@H](CC(C)C)[C@@H](O)C[C@H](C(=O)N[C@H](C(=O)NCc1ccccn1)[C@H](C)CC)C(C)C
Arrange items by their pIC50 values in increasing order. API: response body holds the labels in the requested order.
A, C, B

A. CCCC[C@@H](C(=O)N[C@@H](CC(C)C)[C@@H](O)C[C@H](C(=O)N[C@H](C(=O)NCc1ccccn1)[C@@H](C)CC)C(C)C)N1CCC(Cc2ccccc2)C1=O (stereo in doubt; form 1)
B. CCCC[C@@H](C(=O)N[C@@H](CC(C)C)[C@@H](O)C[C@H](C(=O)N[C@H](C(=O)NCc1ccccn1)[C@@H](C)CC)C(C)C)N1CCC(Cc2ccccc2)C1=O (stereo in doubt; form 2)
Returns the identifier with the smallest measured pIC50 among A and B . Returns: label corresponding to the selected item.
A
(A: 7.57, B: 7.85)
